Readings of inhibition for the listed compounds
target: Mannose-6-phosphate isomerase (Homo sapiens); assay: inhibitors of human PMI, primary screen, biochemical, fluorescence intensity, coupled assay (AID 1209); details: purified PMI enzyme, at 20 µM, stronger effect = higher value;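 further: plate controls were DMSO vehicle for no effect and wells lacking substrate for full effect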
In all, about 190,000 compounds went through this assay and about 810 (0.43%) were called active. Many of the other results were omitted from the sample, so actives are more common in it than they were.

Compound	inhibition, %
COc1ccc2nc(C(C)O)[nH]c2c1 (stereo unspecified)	5.1
O=C(COC(=O)c1ccc(Cl)nc1)c1ccc2c(c1)OCCO2	-10.6
CCn1nc(CC(=O)Nc2nnc(CC(=O)N3CCOCC3)s2)c2ccccc2c1=O	5.5
C=CCn1c(NC(=O)c2ccco2)c(S(=O)(=O)c2ccccc2)c2nc3ccccc3nc21	7.1
CCCCCn1c(NC(=O)c2ccco2)c(S(=O)(=O)c2ccc(C)cc2)c2nc3ccccc3nc21	20
CCCCn1c(NC(=O)c2ccco2)c(S(=O)(=O)c2ccc(C)cc2)c2nc3ccccc3nc21	50.9
Cc1cc(NC(=O)CCc2ccc(S(=O)(=O)N3CCOCC3)cc2)n(-c2ccccc2)n1	-7
COc1ccc2nc(S(=O)Cc3ncc(C)c(OC)c3C)[nH]c2c1 (stereo unspecified)	72.5
CCC(C)/C(C)=N/NC(=O)c1ccc(COc2ccc(Cl)c(C)c2)cc1 (stereo unspecified)	13.9
Cc1ccc(O)c(CP(=O)(c2ccccc2)c2ccccc2)c1	-4.9
Fc1ccc(-n2[nH]nnc2=S)cc1N1CCCC1	-13.3
